# TESTED_TARGET: TGFβ1 (Homo sapiens, UniProt P01137)
# Sequence (P01137 279-390): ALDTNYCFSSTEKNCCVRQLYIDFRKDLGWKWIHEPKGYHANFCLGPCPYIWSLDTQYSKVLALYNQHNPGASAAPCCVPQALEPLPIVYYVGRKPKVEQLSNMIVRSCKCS
VALUE_KIND: Kd (nM)
The reply should contain only the number, in nM.

KRIWFIPRSSWY [KRIWFIPRSSWY peptide] has a reported Kd of 10.4
